test: AUC (0 to t) in male Sprague-Dawley rat at 20 mg/kg, po measured upto 24 hrs by LC-MS/MS analysis; type: ADME, organism-based; conditions: in vivo
EXPERIMENTAL READOUT: AUC(0-t) at 24 h (ng·h/mL)
Report as a plain number; the unit ng·h/mL is understood.

Kindly note the recorded AUC(0-t) at 24 h for COc1cc(Nc2nc(N3CCN(CCOCCNc4cccc5c4C(=O)N(C4CCC(=O)NC4=O)C5=O)CC3)ncc2F)ccc1NC(=O)c1ccc(C2=CCCC2)s1 (stereo unspecified) , which is 2290

---

assay: Half life in male Sprague-Dawley rat at 20 mg/kg, po measured upto 24 hrs by LC-MS/MS analysis; assay type: ADME, organism-based; details: in vivo
EXPERIMENTAL READOUT: half-life (h)
Report as a plain number; the unit h is understood.

Kindly note the recorded half-life for COc1cc(Nc2nc(N3CCN(CCOCCNc4cccc5c4C(=O)N(C4CCC(=O)NC4=O)C5=O)CC3)ncc2F)ccc1NC(=O)c1ccc(C2=CCCC2)s1 (stereo unspecified) , which is 1.06

Hello, the source for this data is ChEMBL document CHEMBL5614419, in case you need it.
